Method: inhibitors of TNFa-induced NFkB p65 translocation, primary screen, imaging, HUVEC, MLSMR starter and 10KST1 sets (AID 438);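 further: compound added about 3h40 before a 20 min TNFalpha stimulation; signal is the nuclear over cytoplasmic p65 intensity ratio per well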
Applied conditions: HUVEC TNFa-induced p65 nuclear translocation; at 2 µM, active compounds read high, 0% TNFa-plus-vehicle, 100% no-TNFa wells
Catalogue of inhibition values
Lab book: enter the figure in %, no units written.

Molecule	inhibition / %
CSCCC(NC(=O)CCN1C(=O)c2ccccc2C1=O)C(=O)O (stereo unspecified)	1.8
Cc1c(CNCc2cccs2)c(C(=O)O)c(C)n1Cc1ccccc1	5.5
Cc1cccc(NC(=O)CN(C)S(=O)(=O)c2ccccc2)n1	-17.1
COC(=O)C1=C(C)Nc2ncnn2C1c1ccc(C)o1 (stereo unspecified)	4.7
Cc1ccc(C)n1-c1ccc(N2CCOCC2)cc1	1

Look at this molecule and give its reported inhibition. Cc1ccc2nc(/C(C#N)=N/O)[nH]c2c1
-1.7

Look at this molecule and give its reported inhibition. Cc1nc(NC(=O)C2CC3CCCC(C2)C3=O)sc1C (stereo unspecified)
4.4

###

Assayed target: Muscarinic acetylcholine receptor M4 (Homo sapiens) (UniProt P08173)
Sequence (P08173 whole entry, looked up): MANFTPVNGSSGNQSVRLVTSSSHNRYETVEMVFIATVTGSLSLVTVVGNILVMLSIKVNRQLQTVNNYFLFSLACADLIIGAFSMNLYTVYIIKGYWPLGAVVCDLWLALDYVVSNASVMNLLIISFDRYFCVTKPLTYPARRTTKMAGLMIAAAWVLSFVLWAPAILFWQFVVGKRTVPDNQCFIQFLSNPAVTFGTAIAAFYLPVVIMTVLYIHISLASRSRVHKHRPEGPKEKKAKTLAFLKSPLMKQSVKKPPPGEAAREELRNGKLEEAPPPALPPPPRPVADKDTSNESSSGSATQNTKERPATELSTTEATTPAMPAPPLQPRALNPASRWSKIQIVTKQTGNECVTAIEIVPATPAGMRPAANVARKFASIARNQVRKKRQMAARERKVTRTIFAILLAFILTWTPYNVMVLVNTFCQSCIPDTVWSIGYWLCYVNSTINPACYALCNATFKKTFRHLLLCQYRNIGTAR
Method: M4-linked GIRK flux change, two-sided – cell-based, HEK293 M4/GIRK, thallium flux, BTC-AM, M4 allosteric agonist project, primary screen (AID 625);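 further: thallium influx through GIRK channels coupled to M4 in HEK293 cells with BTC-AM dye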
Applied conditions: at 10 µM, actives lie on both sides
Catalogue of fluorescence slope values
Give your answer as a number; write no unit.

Compound	Assayed target	fluorescence slope
CCCOc1ccc([C@@H]2C3CN(C(=O)OCC)CC=C3C(C#N)=C(N)C2(C#N)C#N)cc1OC (stereo not given in full)	Muscarinic acetylcholine receptor M4 (Homo sapiens) (UniProt P08173)	0.00528
Cc1ccc(-n2c3c(cc(C(=O)O)c2=O)C(=O)CC(C)(C)C3)cc1	Muscarinic acetylcholine receptor M4 (Homo sapiens) (UniProt P08173)	0.00507
Cc1nc2ccc(NC(=O)N3CCSCC3)cc2s1	Muscarinic acetylcholine receptor M4 (Homo sapiens) (UniProt P08173)	0.00638
CCOc1ccccc1NC(=O)N1C2CCCC1CC(NC(=O)C1CC1)C2 (stereo not given)	Muscarinic acetylcholine receptor M4 (Homo sapiens) (UniProt P08173)	0.00474
COC(=O)C1=C(C)NC(=O)C1(NC(=O)CN1CCCC1=O)C(F)(F)F (stereo not given)	Muscarinic acetylcholine receptor M4 (Homo sapiens) (UniProt P08173)	0.00621

Now for a further compound.
Look at this compound and give its reported fluorescence slope. CC(C)(C)n1ncc2c(=O)n(CC(=O)NCc3ccco3)cnc21
0.00566

###

Method: inhibitors of TNFa-induced NFkB p65 translocation, primary screen, imaging, HUVEC, MLSMR starter and 10KST1 sets (AID 438);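 further: compound added about 3h40 before a 20 min TNFalpha stimulation; signal is the nuclear over cytoplasmic p65 intensity ratio per well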
Applied conditions: HUVEC TNFa-induced p65 nuclear translocation; at 2 µM, active compounds read high, 0% TNFa-plus-vehicle, 100% no-TNFa wells
The source made the active and inactive calls.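 The calls were made as follows: active = inhibition above 20% together with a positive visual image hit; inconclusive = visual image hit but inhibition not above 20%; inactive = no visual image hit.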
Reported endpoint: inhibition

Look at this compound and give its reported inhibition. Cc1ccc2ncnc(NCCCN3CCOCC3)c2c1
-0.6% (inactive)

Look at this compound and give its reported inhibition. COC(=O)c1ccc(NC(=O)C2C3CCC(C3)C2C(=O)O)cc1 (stereo unspecified)
2.5% (inactive)

Look at this compound and give its reported inhibition. CC(C)(C)NC(=O)CC(CC(=O)O)c1ccccc1 (stereo unspecified)
2.9% (inactive)

Look at this compound and give its reported inhibition. Cc1cc(N2C(=O)C(O)=C(C(=O)c3ccc(C)o3)C2c2cccs2)no1 (stereo unspecified)
-3.6% (inactive)

Look at this compound and give its reported inhibition. O=C(CSc1nnc(-c2ccccc2Cl)n1Cc1ccco1)Nc1ccc2c(c1)OCCO2
0.8% (inactive)

Look at this compound and give its reported inhibition. Fc1ccc(-c2nnc3ccc(N4CCCC4)nn23)cc1
0.5% (inactive)

###

Assayed target: Voltage-gated potassium channel subunit beta-2 (Rattus norvegicus) (UniProt P62483)
Sequence (P62483 whole entry, looked up): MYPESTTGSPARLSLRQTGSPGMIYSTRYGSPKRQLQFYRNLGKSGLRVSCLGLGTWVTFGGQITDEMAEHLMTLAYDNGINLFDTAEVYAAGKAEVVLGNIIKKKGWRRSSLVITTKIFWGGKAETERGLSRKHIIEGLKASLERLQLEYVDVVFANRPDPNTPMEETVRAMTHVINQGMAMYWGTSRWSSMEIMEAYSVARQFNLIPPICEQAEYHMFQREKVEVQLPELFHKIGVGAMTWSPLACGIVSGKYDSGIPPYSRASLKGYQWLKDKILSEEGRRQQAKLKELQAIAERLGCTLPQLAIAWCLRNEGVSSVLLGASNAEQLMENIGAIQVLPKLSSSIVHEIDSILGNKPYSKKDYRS
Method: inhibitors of rat Kvbeta2 reductase activity – biochemical, NADPH fluorescence, primary screen (AID 622);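 further: slope of raw intensity against log time taken from 70 to 1610 s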
Applied conditions: recombinant KvBeta, 4-cyanobenzaldehyde reduction, at 10 µM, active compounds read high
Catalogue of fluorescence slope values
Give your answer as a number; write no unit.

Below, 3 compounds whose answers are already recorded.
Compound	Assayed target	fluorescence slope
CCN(CCCNC(=O)C1CCCN(S(=O)(=O)c2cnc[nH]2)C1)c1ccccc1 (centres undefined)	Voltage-gated potassium channel subunit beta-2 (Rattus norvegicus) (UniProt P62483)	-0.507
O=C(Nc1ccc(S(=O)(=O)NCCc2ccccc2)cc1)c1ccc(Br)o1	Voltage-gated potassium channel subunit beta-2 (Rattus norvegicus) (UniProt P62483)	-0.499
COc1cc(C(=O)N(C)c2nnc(-c3cccnc3)s2)cc(OC)c1OC	Voltage-gated potassium channel subunit beta-2 (Rattus norvegicus) (UniProt P62483)	-0.5

Now for a further compound.
Look at this compound and give its reported fluorescence slope. O=C(NCC(=O)N(CCc1ccccc1)C(C(=O)NC1CCCC1)c1cccnc1)c1ccco1 (centres undefined)
-0.493

###

Method: inhibitors of TNFa-induced NFkB p65 translocation, primary screen, imaging, HUVEC, MLSMR starter and 10KST1 sets (AID 438);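 further: compound added about 3h40 before a 20 min TNFalpha stimulation; signal is the nuclear over cytoplasmic p65 intensity ratio per well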
Applied conditions: HUVEC TNFa-induced p65 nuclear translocation; at 2 µM, active compounds read high, 0% TNFa-plus-vehicle, 100% no-TNFa wells
Reported endpoint: inhibition (%)
Lab book: enter the figure in %, no units written.

Entry smiles	inhibition (%)
COc1ccc(Cc2nc(-c3ccc(Br)cc3)no2)cc1	6
Cc1ccc2c(c1)-c1c(cnn1CC(=O)Nc1ccccc1N1CCN(C)CC1)CO2	-10.8
COc1cc(OC)cc(-n2nnnc2SCC(=O)N2CCCC2)c1	-7.3

Look at this molecule and give its reported inhibition. Cc1c(=O)n(OCc2ccccn2)c2ccccc2[n+]1[O-]
-18.3

Look at this molecule and give its reported inhibition. COc1cc(SC)ccc1C(=O)Nc1ccccc1C#N
3.9

Look at this molecule and give its reported inhibition. S=C(c1ccc(N2CCOCC2)cc1)N1CCCCC1
-1.3

###

Method: TLR3 IRF3 reporter activation blockers – cell-based, poly I:C stimulus, luciferase, 10K MLSCN set, primary screen (AID 602277)
Applied conditions: HEK293-TLR3 RL24 IRF3 luciferase reporter, at 10 µM, active compounds read high
Reported endpoint: inhibition (%)
Lab book: enter the figure in %, no units written.

Below, 3 compounds whose answers are already recorded.
Compound	inhibition / %
CC1CCCCC1NC(=O)COc1ccc(-n2cnnn2)cc1 (stereo not drawn)	25.1
CN(C)C(CNc1nnnn1-c1ccccc1)c1ccco1 (stereo not drawn)	19.2
CCOC(=O)c1sc(NC(=O)CSc2ncn(-c3ccccc3)n2)nc1C	13

Look at this compound and give its reported inhibition. Cc1cc(S(=O)(=O)N2CCN(c3ccccc3C)CC2)ccc1F
28.2

Look at this compound and give its reported inhibition. Cn1c(=O)n(C)c2cc(NC(=O)C(F)(F)F)ccc21
17.7

Look at this compound and give its reported inhibition. CCC(=O)N1CCN(CCN=CC2=C(O)CC(C)(C)CC2=O)CC1
11.4

Look at this compound and give its reported inhibition. COCCNC(=O)C(C)N(c1ccc(Oc2ccccc2)cc1)S(C)(=O)=O (stereo not drawn)
23.7

Look at this compound and give its reported inhibition. COc1cccc(NC(=O)CSc2nnc(-c3cccs3)n2C)c1
6.56

Look at this compound and give its reported inhibition. CCC(=O)OC1(C#CCOc2ccc(OC)cc2)CCN(C)CC1
16

Look at this compound and give its reported inhibition. CCN(CC)S(=O)(=O)c1ccc2c(c1)c(=O)c(C(=O)NCCOC)cn2C
15.8

Look at this compound and give its reported inhibition. COc1ccc(C(=O)N2CCN(C3CCCCC3)CC2)c(OC)c1
12.4

###

Assayed target: Voltage-gated potassium channel subunit beta-2 (Rattus norvegicus)
Method: inhibitors of rat Kvbeta2 reductase activity – biochemical, NADPH fluorescence, primary screen (AID 622);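 further: slope of raw intensity against log time taken from 70 to 1610 s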
Applied conditions: recombinant KvBeta, 4-cyanobenzaldehyde reduction, at 10 µM, active compounds read high
Reported endpoint: fluorescence slope
Give your answer as a number; write no unit.

Below, 5 compounds whose answers are already recorded.
Entry smiles	fluorescence slope
Nn1c(SCC(=O)Nc2ccc(S(=O)(=O)N3CCCC3)cc2)nnc1C(F)(F)F	-0.504
CCn1c(CNc2ccc(OC)cc2)nnc1SCC(=O)c1ccc(OC)cc1	-0.502
COc1ccccc1CN(Cc1nc2ccccc2c(=O)[nH]1)C(=O)Nc1ccccc1	-0.49
Cc1cc(NC(=O)Cc2c(F)cccc2Cl)no1	-0.44
O=C(NCCCN1CCOCC1)c1cc(-c2ccc(Cl)cc2)on1	-0.294

Look at this compound and give its reported fluorescence slope. CCOC(=O)C1CCN(S(=O)(=O)c2cc(Cl)c(C)cc2OC)CC1
-0.587

Look at this compound and give its reported fluorescence slope. CC(C)[C@H](NC(=O)NCc1ccc(Cl)cc1)C(=O)O
-0.604

Look at this compound and give its reported fluorescence slope. COc1cccc(-c2nnc(SCC(=O)N3CCCc4ccccc43)o2)c1
-0.378

Look at this compound and give its reported fluorescence slope. Cc1[nH]c2ccccc2c(=O)c1CN(C)Cc1ccccc1
-0.58
